Overview of reported Kb across a group of molecules:
EXPERIMENTAL TARGET: Gonadotropin-releasing hormone receptor (Homo sapiens, UniProt P30968)
Sequence (P30968 whole entry): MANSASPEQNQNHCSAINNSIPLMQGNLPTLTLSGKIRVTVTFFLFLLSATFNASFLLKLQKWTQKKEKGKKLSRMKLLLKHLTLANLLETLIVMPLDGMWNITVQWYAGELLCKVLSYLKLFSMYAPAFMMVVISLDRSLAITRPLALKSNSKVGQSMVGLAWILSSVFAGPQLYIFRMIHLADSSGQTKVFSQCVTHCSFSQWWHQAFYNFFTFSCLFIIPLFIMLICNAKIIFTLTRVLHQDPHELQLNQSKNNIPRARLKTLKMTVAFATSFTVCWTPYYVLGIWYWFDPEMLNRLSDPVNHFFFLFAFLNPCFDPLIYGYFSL
METHOD SUMMARY: Competitive antagonism of GnRH-induced response in the reporter gene assay
Format: functional
CONDITION PARAMETERS: read-out: pA2 (converted)
*1 amine or outer side, *2 acyl side, *3 side chain or, on linkers, in order; H or OH if unused. Where a SMILES comes first, the peptide text is derived from it. [ ]: non-standard residue; d: D form. Phe(4-NH(5-NH2triazol-3-yl)) = Nc1nc(Nc2ccc(C[C@H](N)C(=O)O)cc2)n[nH]1; X1 = Nc1nc(Nc2ccc(C[C@@H](N[*:1])C(=O)[*:2])cc2)n[nH]1; dPhe(4-NHCONH2) = NC(=O)Nc1ccc(C[C@@H](N)C(=O)O)cc1; dPhe(4-Cl) = N[C@H](Cc1ccc(Cl)cc1)C(=O)O; Phe(4-NH2) = Nc1ccc(C[C@H](N)C(=O)O)cc1; d2Nal = N[C@H](Cc1ccc2ccccc2c1)C(=O)O; Lys(iPr) = CC(C)NCCCC[C@H](N)C(=O)O; d3Pal = N[C@H](Cc1cccnc1)C(=O)O
# value in nM; strip the unit string

Inquiry: Kb lookup needed for CC(=O)NCc1ccc(C[C@@H](NC(=O)[C@H](Cc2ccc(NC(=O)[C@@H]3CC(=O)NC(=O)N3)cc2)NC(=O)[C@H](CO)NC(=O)[C@@H](Cc2cccnc2)NC(=O)[C@@H](Cc2ccc(Cl)cc2)NC(=O)[C@@H](Cc2ccc3ccccc3c2)NC(C)=O)C(=O)N[C@@H](CC(C)C)C(=O)N[C@@H](CCCCNC(C)C)C(=O)N2CCC[C@H]2C(=O)N[C@H](C)C(N)=O)cc1 , thanks.
Reply text: 1

---
Inquiry: Kb lookup needed for CC(=O)Nc1ccc(C[C@H](NC(=O)[C@H](CO)NC(=O)[C@@H](Cc2cccnc2)NC(=O)[C@@H](Cc2ccc(Cl)cc2)NC(=O)[C@@H](Cc2ccc3ccccc3c2)NC(C)=O)C(=O)N[C@H](Cc2ccc(NC(N)=O)cc2)C(=O)N[C@@H](CC(C)C)C(=O)N[C@@H](CCCCNC(C)C)C(=O)N2CCC[C@H]2C(=O)N[C@H](C)C(N)=O)cc1 (Ac-[d2Nal][dPhe(4-Cl)][d3Pal]S[Phe(4-NH2)](Ac)[dPhe(4-NHCONH2)]L[Lys(iPr)]P[dA]-NH2) , thanks.
Reply text: 0.501

Inquiry: Kb lookup needed for CC(=O)N[C@H](Cc1ccc2ccccc2c1)C(=O)N[C@H](Cc1ccc(Cl)cc1)C(=O)N[C@H](Cc1cccnc1)C(=O)N[C@@H](CO)C(=O)N[C@@H](Cc1ccc(Nc2n[nH]c(N)n2)cc1)C(=O)N[C@H](Cc1ccc(Nc2n[nH]c(N)n2)cc1)C(=O)N[C@@H](CC(C)C)C(=O)N[C@@H](CCCCNC(C)C)C(=O)N1CCC[C@H]1C(=O)N[C@H](C)C(N)=O.CC(=O)O [PRAZARELIX ACETATE] (Ac-[d2Nal][dPhe(4-Cl)][d3Pal]S[Phe(4-NH(5-NH2triazol-3-yl))][X1]L[Lys(iPr)]P[dA]-NH2) , thanks.
Reply text: 1.58
